The measured values listed here are drawn from patent US11472766B2.

experiment_summary: Lipid nanoparticle size by dynamic light scattering (Malvern Zetasizer Nano ZS)
Type: physicochemical
recorded_conditions: LNP: cationic lipid/DSPC/cholesterol/PEG-lipid 50:10:38.5:1.5, hEPO mRNA; Table 3
Protocol: Briefly, a cationic lipid provided herein, DSPC, cholesterol, and PEG-lipid were solubilized in ethanol at a molar ratio of 50:10:38.5:1.5, and mRNA were diluted in 10 to 50 mM citrate buffer, pH=4. […] Lipid nanoparticle size were determined by dynamic light scattering using a Malvern Zetasizer Nano ZS (Malvern UK) using a 173° backscatter detection mode. […]
Binning of size nm into classes: band A (below 60 nm), band B (60 nm to below 70 nm), band C (70 nm or more)

compound=CCCCCCCCOC(CCCCCN(CCCCCC(=O)NCC(CCCCCC)CCCCCC)CCN(CCO)C1CCC1)OCCCCCCCC answer_label="band B"
compound="CCCCCCCCCCC(CCCCCC)COC(=O)CCCCN(CCCCC(=O)OCC(CCCCCC)CCCCCCCCCC)CCN(CCO)C1CCC1 (stereo not shown)" answer_label="band B"
compound="CCCCCCCCC(CCCCCC)COC(=O)CCCCCN(CCCCCC(=O)OCC(CCCCCC)CCCCCCCC)CCN(C1CCC1)C1CCC(O)CC1 (stereo not shown)" answer_label="band C"

IN: // bin(item) where item = CCCCCCCCC(CCCCCC)C(CC)OC(=O)CCCCCN(CCCCCC(=O)OC(CC)C(CCCCCC)CCCCCCCC)CCN(CCO)C1CCC1 (stereo not shown)
OUT: band B

IN: // bin(item) where item = CCCCCCCCC(CCCCCCCC)COC(=O)CCCCCN(CCCCCC(=O)OCC(CCCCCCCC)CCCCCCCC)CCN(CCCCC)C1CCC(O)CC1 (stereo not shown)
OUT: band A

IN: // bin(item) where item = CCCCCCCCC(CCCCCC)COC(=O)CCCCCN(CCCCCC(=O)OCC(CCCCCC)CCCCCCCC)CCN(CCCCC)C1CCC(O)CC1 (stereo not shown)
OUT: band B

###

experiment_summary: Lipid nanoparticle size by dynamic light scattering (Malvern Zetasizer Nano ZS)
Type: physicochemical
recorded_conditions: LNP: cationic lipid/DSPC/cholesterol/PEG-lipid 50:10:38.5:1.5, hEPO mRNA; Table 3
metric: polydispersity
// no unit string in output, number only

A selection of reference data follows.
molecule="CCCCCCCCC(CCCCCC)COC(=O)CCCCCN(CCCCCC(=O)OCC(CCCCCC)CCCCCCCC)CCN(CCC)C1CC(O)C1 (stereo not drawn) [Compound 60]" metric=polydispersity numeric_readout=0.086
molecule="CCCCCCCCC(CCCCCCCC)COC(=O)CCCCCN(CCCCCC(=O)OCC(CCCCCCCC)CCCCCCCC)CCN(CCCCC)C1CCC(O)CC1 (stereo not drawn) [Compound 74]" metric=polydispersity numeric_readout=0.076
molecule="CCCCCCCCC(CCCCCC)CC(=O)NCCCCCN(CCCCCNC(=O)CC(CCCCCC)CCCCCCCC)CCN(CCO)C1CCC1 (stereo not drawn) [Compound 105]" metric=polydispersity numeric_readout=0.042

IN: Sample CCCCCCCCC(CCCCCC)COC(=O)CCCCCN(CCCCCC(=O)OCC(CCCCCC)CCCCCCCC)CCN(C1CCCCC1)C1CC(O)C1 (stereo not drawn) [Compound 92] — what was its polydispersity?
OUT: 0.04

IN: Sample CCCCCCCCC(CCCCCC)COC(=O)CCCCCC(CCCCCC(=O)OCC(CCCCCC)CCCCCCCC)CCCN(C)CCO (stereo not drawn) [Compound 18] — what was its polydispersity?
OUT: 0.15

IN: Sample CCCCCCCCC(CCCCCCCC)CNC(=O)CCCCCN(CCCCCC(=O)OCC(CCCCCCCC)CCCCCCCC)CCN(CCO)C1CCCC1 [Compound 136] — what was its polydispersity?
OUT: 0.063

IN: Sample CCCCCCCCC(CCCCCC)COC(=O)NCCCCN(CCCCNC(=O)OCC(CCCCCC)CCCCCCCC)CCN(CCO)C1CCCCC1 (stereo not drawn) [Compound 124] — what was its polydispersity?
OUT: 0.061

IN: Sample CCCCCCCCC(CCCCCC)CC(=O)COCCCCN(CCCCCOC(=O)CC(CCCCCC)CCCCCCCC)CCN(CCO)C1CCCCC1 (stereo not drawn) [Compound 26] — what was its polydispersity?
OUT: 0.125

IN: Sample CCCCCCCCC(CCCCCC)CNC(=O)CCCCCN(CCCCCC(=O)OCC(CCCCCC)CCCCCCCC)CCN(CCO)C1CCCC1 (stereo not drawn) [Compound 126] — what was its polydispersity?
OUT: 0.101

###

experiment_summary: Lipid nanoparticle size by dynamic light scattering (Malvern Zetasizer Nano ZS)
Format: physicochemical
recorded_conditions: LNP: cationic lipid/DSPC/cholesterol/PEG-lipid 50:10:38.5:1.5, hEPO mRNA; Table 3
metric: size nm (nm)
Give just the number in nm; leave the unit off.

A selection of reference data follows.
compound="CCCCCCCCC(CCCCCCCC)CC(=O)NCCCCCN(CCCCCOC(=O)CC(CCCCCCCC)CCCCCCCC)CCN(CCO)C1CCCC1 [Compound 143]" numeric_readout=58.61
compound="CCCCC(CCCC)CCCCCC(=O)OCCCCCN(CCCCCOC(=O)CCCCCC(CCCC)CCCC)CCN(CCO)C1CCC1 [Compound 85]" numeric_readout=82.91
compound="CCCCCCCCC(CCCCCCCC)COC(=O)CCCCCN(CCCCCC(=O)OCC(CCCCCCCC)CCCCCCCC)CCN(CCO)C1CCCOC1 (stereo not drawn) [Compound 65]" numeric_readout=63.83
compound="CCCCCCCCC(CCCCCC)CNC(=O)CCCCCN(CCCCCC(=O)NCC(CCCCCC)CCCCCCCC)CCN(CCO)C1CC(O)C1 (stereo not drawn) [Compound 134]" numeric_readout=105.50
compound="CCCCCCCCC(CCCCCC)COC(=O)CCCCCN(CCCCCC(=O)OCC(CCCCCC)CCCCCCCC)CCN(CCO)C1CCN(C)CC1 (stereo not drawn) [Compound 94]" numeric_readout=67.01

From here, focus on the item given below.
IN: Sample CCCCCCCCC(CCCCCC)CNC(=O)CCCCCN(CCCCCC(=O)NCC(CCCCCC)CCCCCCCC)CCN(CCO)C1CC1 (stereo not drawn) [Compound 110] — what was its size nm?
OUT: 91.1

###

experiment_summary: Apparent pKa of LNP formulations (TNS fluorescence assay)
recorded_conditions: LNP cationic lipid/DSPC/cholesterol/DMG-PEG 50/10/38.5/1.5 mol %, Table 3
metric: Apparant Pka
// no unit string in output, number only

A selection of reference data follows.
molecule=CCCCCCCCCCCOC(=O)CCCCCN(CCCCCC(=O)NCC(CCCCCCCC)CCCCCCCC)CCN(CCO)C1CCCC1 numeric_readout=7.304
molecule=CCCCCCC(CCCCCC)CC(=O)NCCCCCN(CCCCCOC(=O)CC(CCCCCC)CCCCCC)CCN(CCO)C1CCCC1 numeric_readout=6.836
molecule="CCCCCCC(CCCCCC)COC(=O)CCCCCN(CCCCCC(=O)OCC(CCCCCC)CCCCCC)CCN(CCO)C1CCC1 [Compound 48]" numeric_readout=6.347
molecule="CCCCCCCCC(CCCCCC)COC(=O)CCCCCN(CCCCCC(=O)OCC(CCCCCC)CCCCCCCC)CCN(CCO)C1CC(O)C1 (centres unmarked)" numeric_readout=6.884
molecule="CCCCCCCCC(CCCCCC)COC(=O)CCCCCN(CCCCCC(=O)OCC(CCCCCC)CCCCCCCC)CCN(CCO)C1CCOC1 (centres unmarked)" numeric_readout=6.6
molecule="CCCCCCCCC(CCCCCC)COC(=O)CCCCCC(CCCCCC(=O)OCC(CCCCCC)CCCCCCCC)CN(CCO)C1CCC1 (centres unmarked)" numeric_readout=9.21
molecule=CCCCCC/C=C\COC(=O)CCCCCN(CCCC(=O)OC(CCCCCCC)CCCCCCC)CCN(CCO)C1CCC1 numeric_readout=6.307

From here, focus on the item given below.
IN: Sample CCCCCCCCC(CCCCCC)COC(=O)CCCCCN(CCCCCC(=O)OCC(CCCCCC)CCCCCCCC)CCN(C1CCCCC1)C1CC(O)C1 (centres unmarked) — what was its Apparant Pka?
OUT: 6.331

###

experiment_summary: Lipid nanoparticle size by dynamic light scattering (Malvern Zetasizer Nano ZS)
Assay type: physicochemical
recorded_conditions: LNP: cationic lipid/DSPC/cholesterol/PEG-lipid 50:10:38.5:1.5, hEPO mRNA; Table 3
Binning of polydispersity into classes: one (below 0.04), two (0.04 to below 0.09), three (0.09 or more)

compound="CCCCCCCCCCCOC(=O)CCCCCN(CCCCCC(=O)OCC(CCCCCCCC)CCCCCCCC)CCN(CCO)C1CCCCC1 [Compound 83]" answer_label=two
compound="CCCCCCCCC(CCCCCC)C(CC)OC(=O)CCCCCN(CCCCCC(=O)OC(CC)C(CCCCCC)CCCCCCCC)CCN(CCO)C1CCC1 (stereo not shown) [Compound 39]" answer_label=two
compound="CCCCCCC(CCCCCC)CNC(=O)CCCCCN(CCCCCC(=O)OCC(CCCCCC)CCCCCC)CCN(CCO)C1CCCCCC1 [Compound 141]" answer_label=one
compound="CCCCCCCC(CCCCCCC)COC(=O)CCCCCN(CCCCCC(=O)OCC(CCCCCCC)CCCCCCC)CCN(CCC)C1CCC(O)CC1 (stereo not shown) [Compound 71]" answer_label=one

IN: // bin(item) where item = CCCCCCCCC(CCCCCC)CNC(=O)CCCCCN(CCCCCC(=O)NCC(CCCCCC)CCCCCCCC)CCN(CCO)C1CC(O)C1 (stereo not shown) [Compound 134]
OUT: one

IN: // bin(item) where item = CCCCCCCCC(CCCCCC)COC(=O)CCCCCN(CCCCCC(=O)OCC(CCCCCC)CCCCCCCC)CCN(CCO)C1COC1 (stereo not shown) [Compound 88]
OUT: three

IN: // bin(item) where item = CCCCCCCCC(CCCCCC)CNC(=O)CCCCCN(CCCCCC(=O)OCC(CCCCCC)CCCCCCCC)CCN(CCC)C1CCC(O)CC1 (stereo not shown) [Compound 133]
OUT: two

IN: // bin(item) where item = CCCCCCCC(CCCCCCC)COC(=O)CCCCCN(CCCCCC(=O)OCC(CCCCCCC)CCCCCCC)CCN(CCO)C1CCC1 [Compound 49]
OUT: two

IN: // bin(item) where item = CCCCCCC(CCCCCC)COC(=O)CCCCCN(CCCCCC(=O)OCC(CCCCCC)CCCCCC)CCN(CCO)C1CCC1 [Compound 77]
OUT: one

IN: // bin(item) where item = CCCCCCCCC(CCCCCCCC)COC(=O)CCCCCN(CCCCCC(=O)OCC(CCCCCCCC)CCCCCCCC)CCN(CCO)C1CC(c2ccccc2)C1 (stereo not shown) [Compound 76]
OUT: three

IN: // bin(item) where item = CCCCCCCCC(CCCCCC)CC(=O)COCCCCN(CCCCCOC(=O)CC(CCCCCC)CCCCCCCC)CCN(CCO)C1CCCC1 (stereo not shown) [Compound 25]
OUT: one

IN: // bin(item) where item = CCCCCCC(CCCCCC)COC(=O)CCCCCN(CCCCCC(=O)OCC(CCCCCC)CCCCCC)CCN(CCC)C1CCC(O)CC1 (stereo not shown) [Compound 72]
OUT: three

IN: // bin(item) where item = CCCCC/C=C\CCCC(=O)C(CC/C=C\CCCCC)C(CCC/C=C\CCCCC)OC(=O)CCCCCN(CCO)CCCCCC(=O)OCCC/C=C/CCCCC (stereo not shown) [Compound 100]
OUT: three
